biological target: recombinant α-synuclein fibrils (Homo sapiens, UniProt P37840); test: radioactive competitive binding assay with [^3H]BF2846 (Tables 1 and 2: or [^18F]7j with LBD-amplified fibrils); details: Table 2; [^3H]BF2846 or [^18F]7j indirect competitive binding assay; read-out: Ki
Listed below: Ki values for each entry.

[
  {
    "MOLECULE": "COc1ccc(Nc2ccc3cc(OCCF)ccc3n2)cn1 [Compound 7j]",
    "Ki [nM]": 6.4
  },
  {
    "MOLECULE": "COc1ccc(Nc2ccc3cccc(F)c3n2)cn1 [Compound 5f]",
    "Ki [nM]": 41
  },
  {
    "MOLECULE": "COc1ccc(Nc2ccc3cc(OS(=O)(=O)F)ccc3n2)cn1 [Compound 7i]",
    "Ki [nM]": 320
  },
  {
    "MOLECULE": "COc1ccc(Nc2ccc3ccc(F)cc3n2)cn1 [Compound 5e]",
    "Ki [nM]": 53
  },
  {
    "MOLECULE": "COc1ccc(Nc2cc(F)c3ccccc3n2)cn1 [Compound 5b]",
    "Ki [nM]": 65
  },
  {
    "MOLECULE": "COc1ccc(Nc2ccc3cc([N+](=O)[O-])ccc3n2)cn1 [Compound 7a]",
    "Ki [nM]": 21
  },
  {
    "MOLECULE": "COc1ccc2nc(Nc3ccc(OC)nc3)ccc2c1 [Compound 7f]",
    "Ki [nM]": 4.6
  },
  {
    "MOLECULE": "COc1ccc(Nc2ccc3cc(N)ccc3n2)cn1 [Compound 7c]",
    "Ki [nM]": 82
  },
  {
    "MOLECULE": "COc1ccc(Nc2ccc3cc(OC(F)F)ccc3n2)cn1 [Compound 7g]",
    "Ki [nM]": 23
  },
  {
    "MOLECULE": "COc1ccc(Nc2ccc3cc(F)ccc3n2)cn1 [Compound 5d]",
    "Ki [nM]": 27
  }
]

###

biological target: recombinant α-synuclein fibrils (Homo sapiens); assay: radioactive competitive binding assay with [^3H]BF2846 (Tables 1 and 2: or [^18F]7j with LBD-amplified fibrils); details: Table 2; [^3H]BF2846 or [^18F]7j indirect competitive binding assay; read-out: Ki

[
  {
    "CHEMICAL STRING": "COc1ccc(Nc2ccc3cc(O)ccc3n2)cn1",
    "Ki (nM)": 70
  },
  {
    "CHEMICAL STRING": "COc1ccc(Nc2ccc3c(F)cccc3n2)cn1",
    "Ki (nM)": 33
  }
]

###

target: PD brain tissues (Homo sapiens); construct: The brain tissue from PD and AD cases was obtained from the Banner Sun Health Research Institute Brain and Body Donation Program; tissue Banner Sun Health Research Institute Brain and Body Donation Program; host or cells: human PD post mortem brain tissue; assay: homologous competitive binding assay of radiotracers, PD tissue; details: two-site binding; read-out: Kd, high affinity binding site, PD tissues
MEASURED PARAMETER: Kd (pM)

[
  {
    "MOLECULE": "COc1ccc(Nc2ccc3cc(OC/C=C/[125I])ccc3n2)cn1 [[^125I]8i]",
    "UNITS OF MEASURE": "pM",
    "QUANTITATIVE RESULT": 610
  }
]

###

molecular target: recombinant α-synuclein fibrils (Homo sapiens); test: radioactive competitive binding assay with [^3H]BF2846 (Tables 1 and 2: or [^18F]7j with LBD-amplified fibrils); conditions: running text b71; fibril type and assay not stated
pKd: −log10 of the molar value.

[
  {
    "COMPOUND": "[11CH3]Oc1ccc(Nc2ccc3cc(OC/C=C/I)ccc3n2)cn1 [[^11C]8i]",
    "MEASURED TARGET": "recombinant α-synuclein fibrils (Homo sapiens)",
    "pKd": 8.30
  }
]

###

target: recombinant α-synuclein fibrils (Homo sapiens); test: radioactive competitive binding assay with [^3H]BF2846 (Tables 1 and 2: or [^18F]7j with LBD-amplified fibrils); settings: Table 3; [^3H]BF2846 indirect competitive binding assay; read-out: Ki
pKi: −log10 of the molar value.
MEASURED PARAMETER: pKi

[
  {
    "MOLECULE": "COc1ccc(Nc2ccc3cc(OCC4CCCCC4)ccc3n2)cn1 [Compound 8b]",
    "MEASURED PARAMETER": "pKi",
    "OPERATOR SYMBOL": "<",
    "QUANTITATIVE RESULT": 6.30
  },
  {
    "MOLECULE": "COc1ccc(Nc2ccc3cc(OCC4COC4)ccc3n2)cn1 [Compound 8a]",
    "MEASURED PARAMETER": "pKi",
    "OPERATOR SYMBOL": "<",
    "QUANTITATIVE RESULT": 6.30
  },
  {
    "MOLECULE": "COc1ccc(Nc2ccc3nc(Nc4ccc(OC)nc4)ccc3c2)cn1 [Compound 8j]",
    "MEASURED PARAMETER": "pKi",
    "OPERATOR SYMBOL": "<",
    "QUANTITATIVE RESULT": 6.00
  },
  {
    "MOLECULE": "FCCOc1ccc2nc(Nc3cccnc3)ccc2c1 [Compound 7t]",
    "MEASURED PARAMETER": "pKi",
    "OPERATOR SYMBOL": "<",
    "QUANTITATIVE RESULT": 6.30
  },
  {
    "MOLECULE": "COc1ccc(Nc2ccc3cc(OCCOCCOCCOCCF)ccc3n2)cn1 [Compound 7m]",
    "MEASURED PARAMETER": "pKi",
    "OPERATOR SYMBOL": "=",
    "QUANTITATIVE RESULT": 7.38
  },
  {
    "MOLECULE": "FCCOc1ccc2nc(Nc3ccc(C(F)(F)F)nc3)ccc2c1 [Compound 7p]",
    "MEASURED PARAMETER": "pKi",
    "OPERATOR SYMBOL": "=",
    "QUANTITATIVE RESULT": 7.09
  },
  {
    "MOLECULE": "COc1ccc(Nc2ccc3cc(OC/C=C/I)ccc3n2)cn1 [Compound 8i]",
    "MEASURED PARAMETER": "pKi",
    "OPERATOR SYMBOL": "=",
    "QUANTITATIVE RESULT": 8.30
  },
  {
    "MOLECULE": "COc1ccc(Nc2ccc3cc(OCc4ccccc4)ccc3n2)cn1 [Compound 8c]",
    "MEASURED PARAMETER": "pKi",
    "OPERATOR SYMBOL": "=",
    "QUANTITATIVE RESULT": 7.32
  },
  {
    "MOLECULE": "COc1ccc2nc(Nc3ccc(SC)nc3)ccc2c1 [Compound 7r]",
    "MEASURED PARAMETER": "pKi",
    "OPERATOR SYMBOL": "=",
    "QUANTITATIVE RESULT": 6.71
  },
  {
    "MOLECULE": "COc1ccc(COc2ccc3nc(Nc4ccc(OC)nc4)ccc3c2)cc1 [Compound 8f]",
    "MEASURED PARAMETER": "pKi",
    "OPERATOR SYMBOL": "=",
    "QUANTITATIVE RESULT": 7.70
  },
  {
    "MOLECULE": "COc1ccc(Nc2ccc3cc(OCc4ccc(F)cc4)ccc3n2)cn1 [Compound 8h]",
    "MEASURED PARAMETER": "pKi",
    "OPERATOR SYMBOL": "=",
    "QUANTITATIVE RESULT": 7.18
  },
  {
    "MOLECULE": "COc1ccc(Nc2ccc3cc(OCC(F)(F)F)ccc3n2)cn1 [Compound 7u]",
    "MEASURED PARAMETER": "pKi",
    "OPERATOR SYMBOL": "=",
    "QUANTITATIVE RESULT": 7.35
  },
  {
    "MOLECULE": "COc1ccc(Nc2ccc3cc(OCc4cccnc4)ccc3n2)cn1 [Compound 8e]",
    "MEASURED PARAMETER": "pKi",
    "OPERATOR SYMBOL": "=",
    "QUANTITATIVE RESULT": 7.62
  }
]
